System: MALME-3M melanoma
ASSAY COMMENT: NCI tumour cell line growth inhibition, 48 h
This listing pairs compounds with measured TGI.

These recorded examples may help you get a feel for the data.
# COMPOUND, TGI
records = [
    ("NC(=O)C(=O)N/N=C1/c2ccccc2CC1C1(O)C(=O)Nc2c(Cl)cc(Cl)cc21 (stereo unspecified)", "> 100 µM"),
    ("CCN(Cc1ccc(F)c(F)c1)c1ccc(CO)c(Cl)c1", "33.3 µM"),
    ("O=C(c1ccc(F)cc1)c1cccc(C(=O)c2ccc(F)cc2)n1", "> 100 µM"),
    ("O=c1cc(/C=C/c2ccc(O)c(O)c2)oc(/C=C/c2ccc(O)c(O)c2)c1", "19.1 µM"),
    ("C=CCc1c2c(c(OC)c3ccoc13)C(=O)/C(=C/c1ccccc1OC)O2", "> 100 µM"),
]

We next turn to a different compound, shown below.
`ClCCn1c(CCl)nc2ccc(Cl)cc21` has a reported TGI of 1.89 µM

* * *

Tested on: OVCAR-3 ovarian
ASSAY COMMENT: NCI tumour cell line growth inhibition, 48 h
This listing pairs molecules with measured TGI.
Enter your answer as a number in µM; do not include the unit.

# MOLECULE, EXPERIMENTAL TARGET, MEASURE, QUANTITATIVE RESULT
measured = [
    ("CN(C)/C=C/c1nnc([N+](=O)[O-])s1", "OVCAR-3 ovarian", "TGI", 7.58),
    ("COc1ccc2c(c1)C(O)(C(F)(F)F)c1cc(C(=O)C(F)(F)F)c3ccccc3c1N2 (stereo not given)", "OVCAR-3 ovarian", "TGI", 29.4),
    ("COc1ccc2nc3cc([N+](=O)[O-])ccc3c(NCCCCCN(C)C)c2c1", "OVCAR-3 ovarian", "TGI", 12.1),
    ("CCN(Cc1ccc(F)c(F)c1)c1ccc(CO)c(Cl)c1", "OVCAR-3 ovarian", "TGI", 2.25),
    ("CC(C)(C)C1=Cc2cc3cc(C(C)(C)C)[nH]c(=O)c3cc2S(=O)(=O)N1", "OVCAR-3 ovarian", "TGI", 59.3),
    ("C=C1[C@@H](O)C[C@@]23CC[C@@H]4[C@@]5(C)CC[C@@H](OC(C)=O)C(C)(C)[C@@H]5C[C@@H](OC5OC(COC(C)=O)C(O)C(O)C5O)[C@@]4(C)C2=CC[C@H]3[C@H]1C (stereo not given in full)", "OVCAR-3 ovarian", "TGI", 16.2),
    ("N#CC(C(=O)/C(=N/NC(=O)c1ccccc1O)C(C#N)c1ccc(Cl)cc1)c1ccc(Cl)cc1 (stereo not given)", "OVCAR-3 ovarian", "TGI", 35.5),
    ("C=C1C(=O)O[C@H]2[C@H]1CC/C(COC(=O)NCc1ccccc1OC)=C\\CC[C@@]1(C)O[C@@H]21", "OVCAR-3 ovarian", "TGI", 2.42),
]

`O=CNc1c(Cl)cc2c(c1Cl)Cc1cc([N+](=O)[O-])ccc1-2` has a reported TGI of 8.87

O=C(c1ccccc1)C1N=NCC1c1ccc([N+](=O)[O-])cc1 (stereo not given) has a reported TGI of 48.4

`CC(C)=CCc1c2c(c3occ(-c4ccc(O)c(O)c4)c(=O)c3c1O)C=CC(C)(C)O2` has a reported TGI of 3.59

`COC(=O)/C=C/C=C(c1ccccc1)c1ccccc1` has a reported TGI of 8.24
